Where do these numbers come from? They come from the Immune Epitope Database (IEDB).

# Study system: HLA-A*11:01
# Experiment notes: IEDB peptide-MHC binding, purified MHC/competitive/radioactivity; filed as Kd, often an IC50 or EC50 that approximates it; bounds were set here for any values at or beyond the usual limits of such assays
# Particulars: source organism: Dengue virus 2 Jamaica/1409/1983
For each of the sequences below, state its Kd.
Remember to put the unit after the number in your answer.

Recorded Kd of `TAIFLTTLSR` , please. 298 nM

And for `GMLQGRGPLK` ? 37.9 nM

And for `ALTALNDMGK` ? 1370 nM

And for `RSTPFNMLK` ? 14.1 nM

And for `FLMSGKGIGK` ? 99.8 nM
